Biological target: MEK5 PB1 domain binding to MEKK2 (MAP3K2) mutant PB1, human
Assay: mutant MEKK2 PB1-MEK5 interaction blockers – biochemical, bead multiplex flow cytometry, dose response (AID 1895)
Settings: Bead-based multiplex flow cytometry, measured here: Ki for PB1 binding
RECORDED METRIC: pKi
pKi here: minus log base 10 of the concentration, concentration in moles per litre.

These solved cases illustrate the format of a correct answer.
O=C1Nc2ccc(Br)cc2/C1=N/N=C/C1=C(N2CCOCC2)C(=C\c2ccccc2)/CC1    5.69
CCOC(=O)C(C(=O)OCC)c1cc(Br)c2noc3c2c1C(=O)c1ccccc1-3    5.54
CS(=O)(=O)N1N=C(c2ccccc2)CC1c1ccc2c(c1)OCO2 (stereo not given)    6.02

INPUT: // returns reported pKi for input Cc1nn2c(N)csc2nc1=O
OUTPUT: 5.48

INPUT: // returns reported pKi for input CCN1C(c2ccccc2)=C(c2ccccc2)S/C1=C/C=C1\SC(=S)N(C)C1=O
OUTPUT: 5.50

INPUT: // returns reported pKi for input CCC(/C=C1\Sc2ccc(OC)cc2N1CCO)=C\c1sc2ccc(OC)cc2[n+]1CCO
OUTPUT: 6.30

INPUT: // returns reported pKi for input CCCN1C(=O)/C(=C\C=C2/Sc3ccccc3N2CC)SC1=S
OUTPUT: 5.58

INPUT: // returns reported pKi for input Nc1cc2nc[nH]c2cc1N
OUTPUT: 5.24

INPUT: // returns reported pKi for input CCN1/C(=C/c2ccc3cc(C)cc(C)c3[n+]2CC)Sc2cc(C)ccc21
OUTPUT: 5.76

INPUT: // returns reported pKi for input CN(c1ccccc1)c1ccc(/C=c2\s/c(=C(/C#N)C(=O)C(C)(C)C)n(Cc3ccco3)c2=O)cc1
OUTPUT: 6.80

====

Target: MEK5 PB1 domain binding to MEKK2 (MAP3K2) mutant PB1, human
Experiment: mutant MEKK2 PB1-MEK5 interaction blockers – biochemical, bead multiplex flow cytometry, dose response (AID 1895)
Conditions: Bead-based multiplex flow cytometry
The source made the active and inactive calls. No rule for the calls is given here.
Thanks in advance; please answer with one of these: active, inactive

Example entries begin here.
O=C(Nc1ccc(C2=NCCN2)cc1)c1ccc(C(=O)Nc2ccc(C3=NCCN3)cc2)c([N+](=O)[O-])c1    inactive
CCN(CC)CCOC(=O)c1ccc(NC(=O)c2cn(-c3ccccc3)nc2-c2cccs2)cc1    inactive
Cc1ccnc(NC(=O)C2(c3cccs3)CCOCC2)c1    inactive

INPUT: What call does the record list for CCCSc1ncnc2sc(C)c(C)c12 ?
OUTPUT: inactive

INPUT: What call does the record list for CCN(CC)CCNC(=O)c1ccc(NC(=O)c2cn(-c3ccccc3)nc2-c2cccs2)cc1 ?
OUTPUT: active

INPUT: What call does the record list for CCOC(=O)c1c(CSC(=N)N)n(-c2ccc(C)cc2)c2cc(Br)c(OC(C)=O)cc12 ?
OUTPUT: active

INPUT: What call does the record list for COc1ccc(-n2nc3c(N)n[nH]c3cc2=O)cc1 ?
OUTPUT: inactive

INPUT: What call does the record list for CCc1ccc(Nc2n[n+](-c3ccccc3)c(-c3ccc(OC)c(Br)c3)s2)cc1 ?
OUTPUT: active

INPUT: What call does the record list for CCCN(CCC)CCNC(=O)c1cc2c(-c3ccc(Cl)cc3)nn(C)c2s1 ?
OUTPUT: active

INPUT: What call does the record list for CC(=O)Nc1cccc2c1C(=O)N(c1cccc(C)c1)C2=O ?
OUTPUT: inactive

INPUT: What call does the record list for Brc1ccc(N=C/C=C/C=C/Nc2ccc(Br)cc2)cc1 ?
OUTPUT: inactive

INPUT: What call does the record list for CCN1CCN(Cc2ccc(NC(=O)c3cc(NC(=O)c4cncc(-c5cccs5)c4)cc(OC)c3)cc2C(F)(F)F)CC1 ?
OUTPUT: inactive

INPUT: What call does the record list for COc1ccccc1N(CN1C(=O)c2ccccc2C1=O)C(=O)c1cccc(C)c1 ?
OUTPUT: inactive

INPUT: What call does the record list for NC(N)=N/N=C/c1ccc(OCc2ccccc2Cl)cc1 ?
OUTPUT: inactive

INPUT: What call does the record list for C#CCOCCOCCOCCNc1nc(N2CCN(C(=O)C(Cc3ccc(O)cc3)n3cc(C(N)CC(C)C)nn3)CC2)nc(N2CCN(C(=O)C(Cc3cc4ccccc4[nH]3)n3cc(C(N)Cc4ccc(O)cc4)nn3)CC2)n1 (stereo not given) ?
OUTPUT: active

INPUT: What call does the record list for CCCCCCOc1ccc(/C(C)=N/NC2=NCCN2)cc1[N+](=O)[O-] ?
OUTPUT: active

INPUT: What call does the record list for CCN1C(c2ccccc2)=C(c2ccccc2)S/C1=C/C=C1\SC(=S)N(C)C1=O ?
OUTPUT: inactive

INPUT: What call does the record list for S=c1[nH]nc(-c2ccc(Cl)cc2)n1-c1ccc2c(c1)OCCO2 ?
OUTPUT: inactive

INPUT: What call does the record list for CCN1/C(=C/c2ccc3cc(C)ccc3[n+]2CC)Sc2cc(C)c(C)cc21 ?
OUTPUT: inactive

INPUT: What call does the record list for CCN1C(c2ccccc2)=C(c2ccccc2)S/C1=C\C=C1/SC(=S)N(C)C1=O ?
OUTPUT: active

Cited source for all entries: PubChem BioAssay AID1895
